Values compiled from patent US6492397B1.

system: pressor response to AII; test: Assay C: In Vivo Intragastric Pressor Assay Response for AII Antagonists; set-up: species or system rat; details: Dose: 3 mg/kg (i.g.), Sprague-Dawley rats, AII challenges up to 180 minutes after gavage
PARAMETER MEASURED: Assay C Duration

- CCCc1cn(CCC)c(=O)n1Cc1ccc(-c2ccccc2-c2nnn[nH]2)nc1: 180 min
- CCCCc1cn(-c2ccccc2Cl)c(=O)n1Cc1ccc(-c2ccccc2-c2nnn[nH]2)nc1: >180 min
- CCCCc1cn(CCCC)c(=O)n1Cc1ccc(-c2ccccc2-c2nnn[nH]2)nc1: >180 min
- CCCCc1cn(CC(CC)CC)c(=O)n1Cc1ccc(-c2ccccc2-c2nnn[nH]2)nc1: >180 min
- CCCCc1cn(CCC(C)(C)C)c(=O)n1Cc1ccc(-c2ccccc2-c2nnn[nH]2)nc1: >180 min

Record Assay C Duration for all entries; do not skip any.
1. CCCCc1cn(CCC(C)C)c(=O)n1Cc1ccc(-c2ccccc2-c2nnn[nH]2)nc1
2. CCCCn1cc(CCC2CC2)n(Cc2ccc(-c3ccccc3-c3nnn[nH]3)nc2)c1=O

>180 min
180 min
